# Tested on: T-47D breast
# protocolNotes: NCI tumour cell line growth inhibition, 48 h
TGI values for the molecules below.
Note: unit µM is implicit; provide only the numeric part.

The examples below pair each entry with its known result.
O=C1C(N2CCOCC2)=C(Cl)C(=O)c2ncccc21 3.92
CSc1nc(N)cc(Oc2ccc(-c3nc(Nc4cccc(C(F)(F)F)c4)n[nH]3)cc2)n1 5.11

Kindly review the next molecule as well.
INPUT: # TGI lookup, item CC(C)(O)/C=C/C(=O)[C@](C)(O)[C@H]1[C@H](O)C[C@@]2(C)[C@@H]3CC=C4[C@@H](C=C(O)C(=O)C4(C)C)[C@]3(C)C(=O)C[C@]12C
OUTPUT: 4.27
